Catalogue of pest or weed control at 200 ppm readings, one per entry.
tested on: Spodoptera littoralis; assay: Spodoptera littoralis (Egyptian cotton leafworm) leaf disc spray test; assay type: in vivo; details: foliar, 72 h, 200 ppm sprayed on cotton leaf discs, L1 larvae, mortality, feeding behavior, growth regulation 3 days after treatment

response.value for O=C(CNC(=O)c1ccc(C2=NOC(c3cc(Cl)cc(Cl)c3)(C(F)(F)F)C2)c2ccccc12)NC1C[S+]([O-])C1 (stereo not shown) [Compound D07] (field: pest or weed control at 200 ppm) = ≥ 80%

----------
The following compounds are listed with their measured pest or weed control at 200 ppm values.
test system: Spodoptera littoralis; assay: Spodoptera littoralis (Egyptian cotton leafworm) leaf disc spray test; format: in vivo; conditions: foliar, 72 h, 200 ppm sprayed on cotton leaf discs, L1 larvae, mortality, feeding behavior, growth regulation 3 days after treatment

Use the examples below as a reference point.
COMPOUND | pest or weed control at 200 ppm
O=C(NC1C[S+]([O-])C1)c1ccc(C2=NOC(c3cc(Cl)cc(Cl)c3)(C(F)(F)F)C2Br)c2ccccc12 (stereo not drawn) | ≥ 80%
O=C(NC1CS(=O)(=O)C1)c1ccc(C2=NOC(c3cc(Cl)cc(Cl)c3)(C(F)(F)F)C2)c2ncccc12 (stereo not drawn) | ≥ 80%

Looking up CC1(NC(=O)CNC(=O)c2ccc(C3=NOC(c4cc(Cl)cc(Cl)c4)(C(F)(F)F)C3)c3ccccc23)CSC1 (stereo not drawn) , I see its pest or weed control at 200 ppm listed as ≥ 80%
